- Tested on: OVCAR-8
- Assay method text: NCI tumour cell line growth inhibition, 48 h
Calls of active or inactive are those of the source. Cut-off read from the data, not from the text of the source: active = GI50 up to about 1.1 µM and inactive = higher.
# key: entry, value: GI50
Measured property: GI50

* CC1CC[C@]2(C(=O)O)CCC3(C)C(=CC(=O)C4[C@@]5(C)CCC(=O)C(C)(C)C5CC[C@]43C)[C@@H]2[C@H]1C (some centres undefined) | 29.4 µM (inactive)
* CCOC(=O)/C(=C\NCc1ccc2c(c1)OCO2)c1nc2ccccc2[nH]1 | 43 µM (inactive)
* CC(=O)Nc1sccc1S(=O)(=O)c1ccc(Cl)cc1 | > 100 µM (inactive)
* Cc1ccc(NC(=O)C(=O)C(C(=O)c2ccc3ccccc3c2)C2OC(=O)c3ccccc32)cc1C (centres undefined) | 12.8 µM (inactive)
* COc1nc(N)c(C(=O)CCl)c(=O)n1C | 19 µM (inactive)
* CC1(C)S[C@@H]2[C@H](N3C(=O)c4ccccc4C3=O)CN2[C@H]1NC(=O)N[C@@H]1N2C[C@@H](N3C(=O)c4ccccc4C3=O)[C@H]2SC1(C)C | 58.3 µM (inactive)
* O=C(/C=C/c1ccc2ccccc2c1)NCc1ccc(C(=O)NCc2ccccc2)cc1 | 30.4 µM (inactive)
* CC1=NC2=Nc3nc(C)cc[n+]3CN2C=C1 | > 100 µM (inactive)
* Cc1cccc2c1C(=O)C1(Cc3ccccc3C1=O)C2 (centres undefined) | > 100 µM (inactive)

---

- System: SNB-19
- Assay method text: NCI tumour cell line growth inhibition, 48 h
Activity calls are given as the source filed them. Cut-off read from the data, not from the text of the source: active = GI50 up to about 1.1 µM and inactive = higher.
Measured property: GI50

- O=[N+]([O-])/C=C/c1cc2ccccc2[nH]1: 17.5 µM (inactive)
- O=[N+]([O-])c1ccc(Cl)c2c([N+](=O)[O-])cccc12: 8.51 µM (inactive)
- CCCC(=O)OCC1(CO)C/C(=C/CC(C(C)C)C(C)C)C(=O)O1 (centres undefined): > 100 µM (inactive)
- O=c1c2ccccc2nc2n1-c1ccccc1SC2: > 100 µM (inactive)

---

Each entry below lists one item and its recorded GI50 value.
- Test system: HL-60
- Assay method text: NCI tumour cell line growth inhibition, 48 h
The source made the active and inactive calls. No stated cut-off is given here; in the data, active = GI50 up to about 1.1 µM and inactive = higher. Where a SMILES comes first, the peptide text is derived from it. The star is where a group is joined. Boc = CC(C)(C)OC(=O)*
Measured property: GI50

* CC(=O)NC1(c2cc3ccccc3s2)CCCCCC1 | 23.4 µM (inactive)
* COc1ccccc1N1CCN(Cn2c(=O)oc3cccnc32)CC1 | > 100 µM (inactive)
* NCCCN1CCN(CCCNc2ccc3ncn4c5ccccc5c(=O)c2c34)CC1 | 0.861 µM (active)
* O=C1/C(=C/c2ccccc2S)N=C(c2ccccc2)N1c1nc2ccc(Sc3ccccc3)cc2[nH]1 | 19.8 µM (inactive)
* Nc1nccc(-c2c[nH]c3cc(Br)ccc23)n1 [MERIDIANIN D] | 29.2 µM (inactive)
* CC1CCC2C(C)C(=O)OC3OC4(C)CCC1C32OO4 (stereo not given) | 37.4 µM (inactive)
* N#C[BH2-][n+]1ccc(C(=O)NNC(c2ccccc2)C(F)(F)F)cc1 (stereo not given) | > 100 µM (inactive)
* NC(=O)C[C@H](NC(=O)C1(NC(=O)[C@H](Cc2ccc(CP(=O)(O)O)cc2)NC(=O)C(=O)O)CCCCC1)C(=O)NCCCc1cccc2ccccc12 | > 10 µM (inactive)
* NC(=O)CCC(N=C(N)c1csc(C2OC(CO)C(O)C2O)n1)C(=O)O (stereo not given) | > 100 µM (inactive)
* Cn1c(-c2ccccc2)c/c(=N\NS(C)(=O)=O)c2cc(S(=O)(=O)O)ccc21 | > 100 µM (inactive)
* Cc1cc(OCC(O)CO)ccc1-c1ccccc1 (stereo not given) | 61.1 µM (inactive)
* CCN(CC)c1ccc(/N=N\c2ccc(-c3nc4ccc[n+](C)c4s3)cc2)cc1 | 1.77 µM (inactive)
* CC1CC[C@]2(C(=O)O)CCC3(C)C(=CC(=O)C4[C@@]5(C)CCC(=O)C(C)(C)C5CC[C@]43C)[C@@H]2[C@H]1C (stereo not given in full) | 4.75 µM (inactive)
* Cc1cc(N(CCC#N)CCC#N)ccc1/N=N/c1ccc([N+](=O)[O-])cc1 | > 100 µM (inactive)
* N/C(=N\O)N/N=C\c1c(O)cc(O)cc1O | 26.1 µM (inactive)
* COc1cc(Br)cc2nc(-c3cccs3)oc12 | > 100 µM (inactive)
* O=C(/C=C/c1ccc2ccccc2c1)NCc1ccc(C(=O)NCc2ccccc2)cc1 | 14.7 µM (inactive)
* Cn1c(=O)c2nc(CCS)[nH]c2n(C)c1=O | > 100 µM (inactive)
* CC(=O)N(O)Cc1ccccc1 | > 100 µM (inactive)
* CN1C(=O)C(O)CC1c1ccc(C(F)(F)F)cc1 (stereo not given) | > 100 µM (inactive)
* CC(=O)OC(=C(C#N)C#N)c1nccnc1C(C)=O | 7.01 µM (inactive)
* CC(=O)NNc1nc(C)c(C(/C=C/c2ccccc2O)=N/NC(=O)c2ccncc2)s1 | > 100 µM (inactive)
* COC(=O)c1sc(C(=O)OC)c2c1C[S+]([O-])C2 | > 100 µM (inactive)
* O=c1[nH]c2cc(Cl)ccc2nc1/C(=N/Nc1ccccc1)C(O)c1ccco1 (stereo not given) | > 100 µM (inactive)
* COC(=O)C1=C(O)C(C(=O)OC)[C@@]2(O)[C@@H](C(=O)OC)CC[C@@H]1[C@@H]2C(=O)OC (stereo not given in full) | 23.3 µM (inactive)
* CC(C)N(CCCNc1c2ccccc2nc2cccc([N+](=O)[O-])c12)C(C)C | < 0.018 µM (active)
* CC(=O)OC1CCC2C3CCc4c(C)ccc(OS(=O)(=O)c5ccccc5)c4C3CCC12C (stereo not given) | 3.84 µM (inactive)
* COc1cc(/C=C/C=C2\CC(C)C/C(=C\C=C\c3ccc(O)c(OC)c3)C2=O)ccc1O (stereo not given) | 7.35 µM (inactive)
* Nc1nc2c(c(-c3cccc(Cl)c3)n1)COC/C2=C\c1cccc(Cl)c1 | > 100 µM (inactive)
* COC(=O)C(Cc1c[nH]c2ccccc12)NC(=O)C(Cc1c[nH]c2ccccc12)NC(=O)C(Cc1c[nH]c2ccccc12)NC(=O)OC(C)(C)C (stereo not drawn) (Boc-Trp-Trp-Trp-OMe; configuration not given here) | 16.1 µM (inactive)
* O=C(Cn1cc(-c2ccccc2)nn1)NC1CCCC1 | > 100 µM (inactive)
* Nc1nc(Cl)c(CO)c(NCC2(CO)CCC2)n1 | > 100 µM (inactive)
* COc1nc2ccc(COc3ccc(C(=O)O)cc3)cc2nc1OC | 53.8 µM (inactive)
* Oc1ccc2ccccc2c1-c1c(Nc2ccccc2)ccc2ccccc12 | 19.5 µM (inactive)
* CC(=O)CCC[C@@H](C)[C@@H]1O[C@H]([C@@]2(C)CCC(=O)O2)C[C@H]2C(CSc3ccccc3)C(=O)O[C@@H]12 (stereo not given in full) | 2.42 µM (inactive)
* O=C(CO)CC(=O)C(=O)Nc1nc([N+](=O)[O-])cs1 | > 100 µM (inactive)
* CCOC(=O)C(C)NC(=O)C(C)NC(=O)C(C)NC(=O)C(C)NC(=O)C(C)NC(=O)OCc1ccccc1 (stereo not given) | > 100 µM (inactive)
* CC(C)(C)c1cc(C(P(=O)(c2ccccc2)c2ccccc2)P(=O)(c2ccccc2)c2ccccc2)cc(C(C)(C)C)c1O | 3.03 µM (inactive)
* CCC1(O)C(=O)OCc2c1cc1n(c2=O)Cc2cc3cc(OC)c(OC)cc3nc2-1 (stereo not given) | 12 µM (inactive)
* CC(C)NC1(C(N)=O)CCN(Cc2ccccc2)CC1 | > 100 µM (inactive)
